Numbers sourced from the supplement of paper PMC10065799.

Molecular target: MERTK (UniProt Q12866)
Sequence (Q12866 whole entry, looked up): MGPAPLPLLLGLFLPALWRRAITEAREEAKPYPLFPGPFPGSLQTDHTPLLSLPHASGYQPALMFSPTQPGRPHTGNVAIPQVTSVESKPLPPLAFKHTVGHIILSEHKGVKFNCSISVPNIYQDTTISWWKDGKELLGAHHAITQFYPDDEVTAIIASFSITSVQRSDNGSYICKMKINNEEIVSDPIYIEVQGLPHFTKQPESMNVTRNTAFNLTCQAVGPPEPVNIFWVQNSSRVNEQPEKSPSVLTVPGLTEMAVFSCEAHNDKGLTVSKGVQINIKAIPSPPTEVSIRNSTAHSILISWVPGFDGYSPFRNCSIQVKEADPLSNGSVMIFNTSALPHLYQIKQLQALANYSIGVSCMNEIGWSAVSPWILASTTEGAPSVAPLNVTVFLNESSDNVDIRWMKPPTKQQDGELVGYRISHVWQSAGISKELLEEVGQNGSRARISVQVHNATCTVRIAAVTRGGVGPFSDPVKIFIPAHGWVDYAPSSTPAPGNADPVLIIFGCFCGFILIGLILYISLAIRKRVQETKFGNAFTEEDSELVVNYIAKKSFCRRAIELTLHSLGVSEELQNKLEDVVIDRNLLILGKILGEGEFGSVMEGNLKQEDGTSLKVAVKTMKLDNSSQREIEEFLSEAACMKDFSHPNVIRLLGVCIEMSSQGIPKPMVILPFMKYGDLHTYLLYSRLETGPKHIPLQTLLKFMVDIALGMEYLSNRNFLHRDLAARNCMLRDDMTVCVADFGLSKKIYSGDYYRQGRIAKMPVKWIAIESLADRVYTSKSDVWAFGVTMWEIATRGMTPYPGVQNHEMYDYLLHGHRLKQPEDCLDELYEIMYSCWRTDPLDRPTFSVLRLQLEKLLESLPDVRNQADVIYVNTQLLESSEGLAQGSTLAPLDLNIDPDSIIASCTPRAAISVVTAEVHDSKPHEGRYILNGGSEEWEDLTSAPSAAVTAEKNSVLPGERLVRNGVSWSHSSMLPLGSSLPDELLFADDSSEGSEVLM
Experiment: phosphorylation enrichment, bacterial display (enrichment ratio); higher = better substrate or ligand; peptides without Tyr show the background;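 note: 11-residue human phosphosite peptides and single-mutation variants displayed on the E. coli surface, counted by deep sequencing, each peptide's frequency after selection divided by its frequency in the unselected input library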;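 note: frequency after pTyr selection over input frequency; kinase dosed for 20-30% of maximal phosphorylation in three min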
Recorded phosphorylation enrichment for the following sequences
Output: the number by itself.

// worked examples, phosphorylation enrichment included
ILDEAYVMASM [EGFR_Y764_V769M] : 0.447
GDAMLYFPSVS [GPR143_Y177_A173D_YF] : 0.726
AGQEDDDRLRP [RAC1_Y64_Y64D] : 0.439
NIRKKYFRAIL [CHD7_Y1217_Q1214R_YF] : 0.555
CLAQRYLIWEC [SCN5A_Y694_R689C] : 0.48
MDFRSYPREFG [RBM10_Y44_YF] : 0.352
ENGPFYTSFPP [GDAP2_Y488_YF] : 13.1
CTTIHYNYMCH [TP53_Y234_N239H] : 0.407

Okay, now this sequence:
Which phosphorylation enrichment is reported for this sequence? YGIAQYCCRMG [LRRK2_Y2023]
4.29
